Numbers sourced from PubChem BioAssay (EPA / NIEHS).

# measured_target: Hepatocyte nuclear factor 6 (Homo sapiens) (UniProt Q9UBC0)
# Sequence (Q9UBC0 whole entry, looked up): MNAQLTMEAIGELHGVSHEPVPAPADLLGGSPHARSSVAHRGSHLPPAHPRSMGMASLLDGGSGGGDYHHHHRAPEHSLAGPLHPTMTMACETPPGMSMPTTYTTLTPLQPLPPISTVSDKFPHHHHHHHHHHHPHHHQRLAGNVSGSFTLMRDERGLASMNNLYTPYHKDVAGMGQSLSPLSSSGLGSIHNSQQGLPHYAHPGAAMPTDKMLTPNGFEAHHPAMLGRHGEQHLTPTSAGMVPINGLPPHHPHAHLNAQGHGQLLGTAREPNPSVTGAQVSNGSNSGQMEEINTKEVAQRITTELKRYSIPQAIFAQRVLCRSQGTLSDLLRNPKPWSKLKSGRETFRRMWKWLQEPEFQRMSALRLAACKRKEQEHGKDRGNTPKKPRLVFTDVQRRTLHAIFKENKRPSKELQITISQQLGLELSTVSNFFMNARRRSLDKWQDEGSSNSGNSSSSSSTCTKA
# test_summary: ATG_HNF6_CIS: Attagene CIS-FACTORIAL HepG2 Assay for human Hepatocyte Nuclear Factor 6 (HNF6) (AID 2282952)
# experimental_setup: HepG2 Attagene cis-factorial HNF6 reporter transcription; actives raise or lower the signal
The source made the active and inactive calls. Rule for the calls: active = hit-call score of the fitted dose curve at least 0.9, where 1 is the maximum; inactive = score below 0.9.
Labels: True for active, False for inactive

molecule	class
COC(=O)CCSCCC(=O)OC	False
COC(OC)C(C)c1ccccc1 (configuration not stated)	False
Sc1nc2ccccc2s1	False
O=C(O)Cc1c[nH]c2ccccc12	False
NC(=O)c1ccc([N+](=O)[O-])cc1Cl	False
Nc1ccc(S(=O)(=O)Nc2cnc3ccccc3n2)cc1	False
CC/C=C\CC/C=C/C(OCC)OCC	False
Oc1ccc(Cl)cc1C1CCCC1	True
CCCc1c(OCCCCc2nn[nH]n2)ccc(C(C)=O)c1O	False
CN1CCCC1	False
OCCN(CCO)c1cccc(Cl)c1	False
CC(C)CC(=O)CC(C)C	False
CCCC(=O)OC	False
c1cc(N(CC2CO2)CC2CO2)ccc1Cc1ccc(N(CC2CO2)CC2CO2)cc1 (configuration not stated)	False
O=C(C(=O)c1ccccc1)c1ccccc1	False
CC[N+](CC)(CC(=O)Nc1c(C)cccc1C)Cc1ccccc1 (tested in a mixture with another compound)	False
C/C=C(\C)C(=O)OCC/C=C\CC	False
COCCCN	False
Cc1ccnc(N)c1	False
CC1=NN(c2cc(Cl)c(S(=O)(=O)O)cc2Cl)C(=O)C1N=Nc1ccc(S(=O)(=O)O)cc1 (configuration not stated)	False
CCCCn1cc[n+](C)c1	False
CCOC(=O)CC(=O)OCC	False
Cc1cc2nc3c(=O)[nH]c(=O)nc-3n(C[C@H](O)[C@H](O)[C@H](O)CO)c2cc1C	False
O=S(=O)(O)c1cccc2ccccc12	False
CC/C=C/CCO	False
N#CCN(CC#N)CCN(CC#N)CC#N	False
CC=CC(=O)O	False
CCO[Si](OCC)(OCC)c1ccccc1	False
CC/C=C\CCCCCO	False
O=C(OCc1ccccc1)c1ccccc1	False
CCCCCCCC#N	False
CCCCCCCCCCC1CO1 (configuration not stated)	False
CC/C=C\CC1=C(C)CCC1=O	False
CC[N+](CC)(CC(=O)Nc1c(C)cccc1C)Cc1ccccc1	False
O=C(Oc1ccccc1)c1ccccc1	False
C=C(C)C(=O)OCCCCCC	False
Oc1cccc2ccccc12	False
C=CC(C)(CCC=C(C)C)OC(=O)c1ccccc1 (configuration not stated)	False
CCCC(=O)OC/C=C(\C)CCC=C(C)C	False
CC(C)CC(=O)CC(C)CC(C)C (configuration not stated)	False
Clc1ccccn1	False
O=[N+]([O-])c1ccccc1C(F)(F)F	False
CCCN[C@H]1CCc2nc(N)sc2C1	False
O=C(O)/C=C/C(=O)O	False
CC(C)=CCOC(=O)c1ccccc1	False
O=C(O)c1ccccc1C(=O)O	False
CC(=O)c1nccs1	False

###

# test_summary: ATG_GAL4_TRANS: Attagene TRANS-FACTORIAL HepG2 Assay for GAL4 (Internal Marker) (AID 2282976)
# experimental_setup: HepG2 Attagene TRANS GAL4 internal marker reporter
Inconclusive results are not listed. The source made the active and inactive calls. The calls were made as follows: active = hit-call score of the fitted dose curve at least 0.9, where 1 is the maximum; inconclusive = response in the unintended direction; inactive = score below 0.9.
Labels: 1.0 = active, 0.0 = inactive

compound	class
C/C=C(\C)C(=O)OCC/C=C\CC	0.0
C1=CCC=C1	0.0
CC[N+](CC)(CC(=O)Nc1c(C)cccc1C)Cc1ccccc1	0.0
Cc1cc2nc3c(=O)[nH]c(=O)nc-3n(C[C@H](O)[C@H](O)[C@H](O)CO)c2cc1C	0.0
NC(N)=Nc1nc(CSCCC(N)=NS(N)(=O)=O)cs1	0.0
CC/C=C\CCCCCO	0.0
Cc1cc(O)cc(C)c1Cl	0.0
O=C(O)/C=C\C(=O)O	0.0
CCC(C)C1N=C(C)C(C)S1 (stereo not given)	0.0
CC(C)CC(=O)O	0.0
c1cc[c]([Bi]([c]2ccccc2)[c]2ccccc2)cc1	0.0
C=CN1CCCCCC1=O	0.0
NCc1ccccc1	0.0
O=C(O)c1cc(Cl)cc(Cl)c1O	0.0
CN(C)N=Nc1ccccc1	0.0
OCCN(CCO)c1cccc(Cl)c1	0.0
CCCCCCCCCCCCCCCCCC[N+](C)(C)C	1.0
CN(C)CCC(c1ccc(Cl)cc1)c1ccccn1 (stereo not given)	0.0
CCCCC(CC)COC(=O)CS (stereo not given)	0.0
O=[N+]([O-])c1ccccc1C(F)(F)F	0.0
C=C(C)C(=O)OCCCCCC	0.0
CC(C)CC(=O)CC(C)C	0.0
Cc1ccnc(N)c1	0.0
CCCCCCC1CCC(=O)O1 (stereo not given)	0.0
Clc1ccccn1	0.0
